Target: T1, mouse GIP receptor (mouse, UniProt Q0P543 19-460)
T1 sequence (looked up): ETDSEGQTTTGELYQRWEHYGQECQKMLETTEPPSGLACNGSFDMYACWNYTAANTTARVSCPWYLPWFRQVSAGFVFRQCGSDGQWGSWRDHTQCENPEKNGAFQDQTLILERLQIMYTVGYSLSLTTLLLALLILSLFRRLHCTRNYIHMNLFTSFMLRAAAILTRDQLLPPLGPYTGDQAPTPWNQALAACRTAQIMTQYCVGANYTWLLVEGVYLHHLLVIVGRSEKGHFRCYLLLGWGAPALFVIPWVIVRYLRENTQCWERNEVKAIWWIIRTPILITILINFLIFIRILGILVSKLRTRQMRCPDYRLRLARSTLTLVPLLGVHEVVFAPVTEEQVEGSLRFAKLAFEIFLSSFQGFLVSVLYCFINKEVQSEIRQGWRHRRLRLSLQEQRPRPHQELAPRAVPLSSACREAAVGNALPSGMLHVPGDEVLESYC
Assay: cell-based or functional assay
# maps each entry to its cAMP EC50
The reply should be a number in µM, with the unit left off.

Observe how each entry below is paired with its result.
• IP273 (Fc fusion) YSEGTFTSDYSKLLEEEAVRLFIEWLVKGPAAAGGSGSTASSGSGSATGGGGAATHTCPPC = 0.085
• IP400 (Fc fusion) YSEGTHTSDLSKLLEEEAVRLFIEWLLAGGGGGGSGGGGSGGGGSGGGGSATHTCPPC = 0.38
• IP124 (Fc fusion) YSEGTFTSDYSKLLEEEAVRLFIEWLVKGAAAGGSGSTASSGSGSATGGGGAATHTCPPCPAPEF = 0.13
• IP278 (Fc fusion) YSEGTFTSDYSKLLEEEAVRLFIEWLVKGPPSSGAPPPSGGGGGSGGGGSGGGGSGGGGSATHTCPPC = 0.085

Proceed to the following item.
Q) Given the binder IP213 (Fc fusion) YSEGTFTSDYSKLLEEEAVRLFIEWLLAGGAAAGGSGSTASSGSGSATGGGGAATHTCPPCPAPEF , write its reported cAMP EC50.
A) 0.0025

Origin of values: patent US20160185837A1
